These data points were gathered from PubChem BioAssay.

# viability per record follows
assay_procedure: HUVEC growth inhibition – cell-based, human, primary screen (AID 575);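 also: 100% = median of untreated cell wells with 0.1% DMSO on each plate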
details: HUVEC proliferation, CellTiter-Glo luminescence, 72 h; at 10 µM; active compounds read low
Numbers only here, please. The scale is %.

Give the reported viability for this molecule. `O=C(c1ccc2c(c1)OCO2)N1CCNc2ccccc2C1`
90.4

Give the reported viability for this molecule. `COc1ccccc1OCCCn1c(=O)oc2ccccc21`
90.1

Give the reported viability for this molecule. COc1ccc(C(c2nnnn2C2CCCC2)N2CCC(C)CC2)c(OC)c1 (centres undefined)
91.4

* * *

assay_procedure: HUVEC growth inhibition – cell-based, human, primary screen (AID 575);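 also: 100% = median of untreated cell wells with 0.1% DMSO on each plate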
details: HUVEC proliferation, CellTiter-Glo luminescence, 72 h; at 10 µM; active compounds read low
viability under 90% gets class 1, anything at or over 90% gets class 0.

Please review the following examples before continuing.
is_below(viability, 90%) for `O=C(Sc1nnnn1C1CCCCC1)c1cccs1` ?
class 0

is_below(viability, 90%) for CSC1=C(C#N)C(C)CC(=O)N1 (configuration not stated) ?
class 0

is_below(viability, 90%) for COc1ccccc1C(=O)NC(C)C(c1cccs1)N1CCN(C)CC1 (configuration not stated) ?
class 1

is_below(viability, 90%) for `COc1ccc(OCC(=O)Nc2ccc(N3CCOCC3)c(Cl)c2)cc1` ?
class 0

// switching to the query compound
is_below(viability, 90%) for `COc1ccc(/C=N/n2cc(-c3ccc(OC)cc3)nc2N)cc1` ?
class 1
